In this section we review reported folding stability dG unfold values for a set of sequences.
Assay: folding stability dG unfold from chymotrypsin proteolysis; higher = more stable
Number in kcal/mol, nothing else.

Answered cases to consult:
SWWYIVTIKIWKPGNGEPKGPIMLFVRSPEEAEEIAEEPAPEHGYDVEVNVKRIPPDDMDDPEQMKEMMNSA [r9_864_TrROS]
2.56
SAGGSAGGPYYIMVDIEMYNPQDGKERNFTLMIPVPPGDLPKIKEELLSAGFPIKIKNISIMPPSAGGSAGG [r6_151_TrROS]
2.88
SAGGSAGGDKKGKPKPQWVTIMFKVPDDDLPPEEIAKEFPGVKIERSPGMYMITVPVNGKWIPFSAGGSAGG [r6_739_TrROS]
1.25
SAKMYLVIIEIKKDGKTYKLIIIIPEEDENLTEEEILEKIRELAEKLNLEIEKIEVIPLEEAKKLLEELSAG [r14_953_TrROS_Hall]
5.25
KIPITIEEDPEDKMYELRVPDGMPIQIQRSKDGYRVSIWNPDNGKPREIPITKKDLKDLLSNPGFWIEIYKS [r1_18_TrROS]
1.56
SAGTVTSSTTPLPDGSLLSTTTTTSPVSGTSVTTSTTTTTPVTPTTPPPPPRPVYPRYYDGVTEPALSLSAG [r5_169_JUSTAS]
-0.12

Q: Query: folding stability dG unfold; subject: SAGGSAGGSAGAEELAKKLKELGFEVKVEKNEDGSLTLTVKFKPKPKPKKVVTKDGKEVKSAGGSAGGSAGG [r17_503_TrROS_Hall]
Ans: 1.9

====

Assay: folding stability dG unfold (combined trypsin and chymotrypsin); higher = more stable
readout: folding stability dG unfold (kcal/mol)
Number in kcal/mol, nothing else.

SAGGMLTYTTEYDPRGVLTVREYDPSTSKPISTHIIELGPEPVPPPVPGFPQVTPSGELRLVEDPAGPSAGG [r13_9_JUSTAS]
-0.0536

Q: Query: folding stability dG unfold; subject: SAGGSAPVVEYEFVDPGNGRKVKIEVYPHPDGNYQMSIEVYDPGKPVEKIPFWMPPGEMPIEDLLKSAGGSA [r15_147_TrROS]
Ans: 0.565

Q: Query: folding stability dG unfold; subject: SAGPKIRTIIKEILKELNPDRPIEIHTHPDGFIIIVNPDDGRFIMIKIDPDGDIKISEVVPAEEMKKMMSAG [r5_852_TrROS]
Ans: 1.49

====

Assay: folding stability dG unfold (combined trypsin and chymotrypsin); higher = more stable
readout: folding stability dG unfold (kcal/mol)
Number in kcal/mol, nothing else.

Answered cases to consult:
SKIKIKAKDKKTNIPIDEIDIYPLEDGSYGIKIIFTFPKEKKEITIPIPKNKKIEEFIKALGLEEIEIDASA [r9_492_TrMRF]
1.79
SAGGSMERTVELTYTFKDKPIKITITVTTDPETGTVTVPIEIETEDEKIKEPALEKAKELAEELLASAGGSA [r2_259_JUSTAS]
0.301
SAGGSAMTTVTWTFPPSTSVEEAIEALKAQLEAERNEKIEIPSISVSTTGDTITVTLPIKIEPLPASAGGSA [r15_105_JUSTAS]
1.26

Q: Query: folding stability dG unfold; subject: SAGGAVVTPETEGDRTFVTTTDPESGSRTVTVTTYDPTTNTATTTTYFVPPDGVPTRVATTTTPLPPTSAGG [r13_768_JUSTAS]
Ans: 1.44

Q: Query: folding stability dG unfold; subject: SMVQGTVLPPNGQRLTFEFDPAGTAQERAEQVRALLEALLPPDLKIEVERVEPDRPISADEPGTVLARADSA [r9_178_TrMRF]
Ans: -0.248

Q: Query: folding stability dG unfold; subject: SAGGSARRPFNVEAWYPPGRSADNVADELASHFFGIKIDDVEVEPNPDNGYYKIEATIRIPPDWLKSAGGSA [r15_930_TrROS]
Ans: 0.33

Q: Query: folding stability dG unfold; subject: SAGGSAGGSPAEITREEAVELAYETLPATEPAVFVFADPRLLVVYPDGADPSRNRVVEVPLLDSAGGSAGGS [r12_648_TrMRF]
Ans: -0.741

Q: Query: folding stability dG unfold; subject: SAGGKVVKTKEEAEKLVKEGKAEVVSVKKVKVPVNGKEKEVEVLEVKIKDKKTKKEKTIVLTKEQLKSAGGS [r16_271_TrROS_Hall]
Ans: -0.894

Q: Query: folding stability dG unfold; subject: SAGGPAGEEVPVRITARIYMPDPDGKMHSHEIPIDIPMPVDELKEKLIKEIMDEHGYHITEIDIEPYSAGGS [r16_511_TrROS]
Ans: -0.711
